test: Encapsulation rate of siRNA in nucleic acid lipid particles (Luc2-siRNA); assay type: physicochemical; conditions: compound/DSPC/cholesterol/DMG-PEG2000 50/10/38.5/1.5
Reported Nucleic acid encapsulation rate is given for each of the following compounds.

compound	Nucleic acid encapsulation rate [%]
CCCCCCC(CCCC)COC(=O)CCCC(CCCCCC)OC(=O)OCCN(CCO)CCN(CC)CC (stereo not drawn) [Example 101]	68
CCCCCCC(CCCC)COC(=O)CCCC(CCCCCC)OC(=O)OCCN(CCN(CC)CC)C(C)C (stereo not drawn) [Example 81]	49
CCCCCCCCCC(=O)OCCCCCCC(CCCCCCOC(=O)CC(CCCCCCC)CCCCCCC)OC(=O)OCCN(CC)CCN(CC)CC (stereo not drawn) [Example 78]	75
CCCCCCC(CCCC)COC(=O)CCCCCCCCC(CCCCCC)OC(=O)OCCN(CCN(CC)CC)C(C)C (stereo not drawn) [Example 84]	79
CCCCCC/C=C\COC(=O)OCCCCCCN(CCCCCCOC(=O)OC/C=C\CCCCCC)C(=O)OCCN(C)CCN(C)C [Example 14]	76
CCCCCCCCCCCC(=O)OCCN(CCOC(=O)OC(CCCCCC)CCCC(=O)OCC(CCCCCC)CCCCCCCC)CCN(CC)CC (stereo not drawn) [Example 109]	91
CCCCC/C=C\C/C=C\CCCCCCCC(=O)OCCCCCCC(CCCCCCOC(=O)CCCCCCC/C=C\C/C=C\CCCCC)OC(=O)OCCN(CC)CCN(CC)CC [Example 45]	76
CCCCCCC(=O)OCCN(CCOC(=O)OC(CCCCCC)CCCCCCCCC(=O)OCC(CCCC)CCCCCC)CCN(CC)CC (stereo not drawn) [Example 104]	81
CCCCC/C=C\C/C=C\CCCCCCCCC(CCCCCCCC/C=C\C/C=C\CCCCC)OC(=O)OCCN(CCN(C)CCC)C(C)C [Example 63]	79
CCCCCCCCC(CCCCCC)COC(=O)CCCCC(CCCCCC)OC(=O)OCCN(CCN(CC)CC)C(C)C (stereo not drawn) [Example 96]	88
CCCCC/C=C\C/C=C\CCCCCCCCC(CCCCCCCC/C=C\C/C=C\CCCCC)OC(=O)OCCN(CCN(CC)CC)C(C)C [Example 42]	78
CCCCC/C=C\C/C=C\CCCCCCCCC(CCCCCCCC/C=C\C/C=C\CCCCC)OC(=O)OCCN(CC)CCN(C)C [Example 24]	88
CCCCCC/C=C\COC(=O)CCCCCCCN(CCCCCCCC(=O)OC/C=C\CCCCCC)C(=O)OCCN(C)CCN(C)C [Example 11]	84
CCCCC/C=C\C/C=C\CCCCCCCCN(CCCCCCCC/C=C\C/C=C\CCCCC)C(=O)OCCNCCN [Example 9]	92
CCCCCCCCC(CCCCCC)COC(=O)CCCC(CCCCCC)OC(=O)OCCN(CCO)CCN(CC)CC (stereo not drawn) [Example 102]	70
CCCCCC/C=C\CCCCCCCC(=O)OCCCCCCC(CCCCCCOC(=O)CCCCCCC/C=C\CCCCCC)OC(=O)OCCN(CC)CCN(CC)CC [Example 46]	80
CCCCC/C=C\C/C=C\CCCCCCCCN(CCCCCCCC/C=C\C/C=C\CCCCC)C(=O)OCC1CCCN(C)C1 (stereo not drawn) [Reference Example 2, reference compound]	85
CCCCC/C=C\C/C=C\CCCCCCCC(=O)OCC(COC(=O)CCCCCCC/C=C\C/C=C\CCCCC)OC(=O)OCCN(CC)CCN(C)C [Example 35]	87
CCCCC/C=C\C/C=C\CCCCCCCCN(CCCCCCCCC)C(=O)OCCN(C)CCN(C)C [Example 16]	90
CCCC/C=C\CCCCCCCC(=O)OCCCCCCC(CCCCCCOC(=O)CCCCCCC/C=C\CCCC)OC(=O)OCCN(CC)CCN(CC)CC [Example 47]	74
CCCCC/C=C\C/C=C\CCCCCCCCN(CCCCCCCC/C=C\C/C=C\CCCCC)C(=O)OCCN1CCN(C)CC1 [Comparative Example 5, reference compound]	87
CCCCCCCC/C=C\CCCCCCCC(=O)OCCN(CCCN(CC)CC)CCOC(=O)OC(CCCCCC)CCCCCCCCC(=O)OCC(CCCC)CCCCCC (stereo not drawn) [Example 93]	70
CCCCCCCCC(=O)OCCN(CCOC(=O)OC(CCCCCC)CCCCCCCCC(=O)OCC(CCCCC)CCCCC)CCN(CC)CC (stereo not drawn) [Example 130]	66
CCCCCCCC/C=C\CCCCCCCC(=O)OCCN(CCOC(=O)OC(CCCCCC)CCCCCCCCC(=O)OCC(CCCC)CCCCCC)CCN(CC)CC (stereo not drawn) [Example 91]	69
CCCCCCCCC(CCCCCC)COC(=O)CCCCCCCCC(CCCCCC)OC(=O)OCCN(CCN(CC)CC)C(C)C (stereo not drawn) [Example 89]	83
CCCCCCC(CCCCCCCCC(=O)OCCC(CCCCC)CCCCC)OC(=O)OCCN(CCO)CCN(CC)CC (stereo not drawn) [Example 123]	66
CCCCCCCC(=O)OCCN(CCOC(=O)OC(CCCCCC)CCCCCCCCC(=O)OCCC(CCCCC)CCCCC)CCN(CC)CC (stereo not drawn) [Example 125]	76

----------
assay: Encapsulation rate of siRNA in nucleic acid lipid particles (Luc2-siRNA); type: physicochemical; details: compound/DSPC/cholesterol/DMG-PEG2000 50/10/38.5/1.5
Threshold check on Nucleic acid encapsulation rate: at or above 80% gives MET, strictly below gives NOT MET.

molecule	class label
CCCCC/C=C\C/C=C\CCCCCCCCC(CCCCCCCC/C=C\C/C=C\CCCCC)OC(=O)OCCN(CCCCC)CCN(C)C [Example 40]	NOT MET
CCCCCCCCCC(=O)OCCN(CCOC(=O)OC(CCCCCC)CCCC(=O)OCC(CCCCCC)CCCCCCCC)CCN(CC)CC (stereo not shown) [Example 110]	MET
CCCCCCCCCCC(CCCCCCCCC(=O)OCC(CCCC)CCCCCC)OC(=O)OCCN(CCN(CC)CC)C(C)C (stereo not shown) [Example 69]	MET
CCCCCCC(CCCCCC)C(=O)OCCCCCCC(CCCCCCOC(=O)C(CCCCCC)CCCCCC)OC(=O)OCCN(CC)CCN(CC)CC [Example 77]	MET
CCCCCCC(CCCC)COC(=O)CCCCCCC(CCCCCC)OC(=O)OCCN(CCN(CC)CC)C(C)C (stereo not shown) [Example 92]	NOT MET

----------
test system: Factor VII (FVII) protein; test: Measurement of Factor VII (FVII) protein in mouse plasma after FVII-siRNA lipid particles; assay type: in vivo, C57BL6/J mice; settings: 0.1 mg/kg caudal vein, plasma 24 hours after administration, PBS group = 100%

compound	tgt	Relative amount of FVII protein (%)
CCCCCCCCC(CCCCCC)COC(=O)CCCC(CCCCCC)OC(=O)OCCN(CCOC(=O)CCCCCCC)CCN(CC)CC (stereo not shown)	Factor VII (FVII) protein	2
CCCCCCCCCC(CCCCCCC)C(=O)OCCCCCCC(CCCCCCOC(=O)C(CCCCCCC)CCCCCCCCC)OC(=O)OCCN(CC)CCN(CC)CC (stereo not shown)	Factor VII (FVII) protein	14
CCCCC/C=C\C/C=C\CCCCCCCCC(CCCCCCCC/C=C\C/C=C\CCCCC)OC(=O)OCCN(CCN(CC)CC)C(C)C	Factor VII (FVII) protein	9
CCCCC/C=C\C/C=C\CCCCCCCC(=O)OCCCCCCC(CCCCCCOC(=O)CCCCCCC/C=C\C/C=C\CCCCC)OC(=O)OCCN(CC)CCN(CC)CC	Factor VII (FVII) protein	16
CCCCCCCCCC(=O)OCCN(CCOC(=O)OC(CCCCCC)CCCCCCCCC(=O)OCC(CCCC)CCCCCC)CCN(CC)CC (stereo not shown)	Factor VII (FVII) protein	3
CCCCCCCC(CCCCCCC)C(=O)OCCCCCCC(CCCCCCOC(=O)C(CCCCCCC)CCCCCCC)OC(=O)OCCN(CC)CCN(CC)CC	Factor VII (FVII) protein	4
CCCCC/C=C\C/C=C\CCCCCCCCC(CCCCCCCC/C=C\C/C=C\CCCCC)OC(=O)OCCN(C)CCN(CC)CC	Factor VII (FVII) protein	39
CCCCCCCC/C=C\CCCCCCCC(=O)OCCN(CCOC(=O)OC(CCCCCC)CCCCCCCCC(=O)OCC(CCCC)CCCCCC)CCN(CC)CC (stereo not shown)	Factor VII (FVII) protein	9
CCCCCCCC/C=C\CCCCCCCC(=O)OCCCCCCC(CCCCCCOC(=O)CCCCCCC/C=C\CCCCCCCC)OC(=O)OCCN(CCCCCC)CCN(C)C	Factor VII (FVII) protein	11
CCCCCCCC/C=C\CCCCCCCC(=O)OCCN(CCOC(=O)OC(CCCCCC)CCCC(=O)OCC(CCCCCC)CCCCCCCC)CCN(CC)CC (stereo not shown)	Factor VII (FVII) protein	6
CCCCCCC(=O)OCCN(CCOC(=O)OC(CCCCCC)CCCCCCCCC(=O)OCC(CCCC)CCCCCC)CCN(CC)CC (stereo not shown)	Factor VII (FVII) protein	1
CCCCCCCC(CCCCCCC)COC(=O)CCCCCCCCC(CCCCCC)OC(=O)OCCN(CCN(CC)CC)C(C)C (stereo not shown)	Factor VII (FVII) protein	16
CCCCCCCCC(CCCCCC)C(=O)OCCCCCCC(CCCCCCOC(=O)C(CCCCCC)CCCCCCCC)OC(=O)OCCN(CC)CCN(CC)CC (stereo not shown)	Factor VII (FVII) protein	3

Values from patent US12370143B2
